# Subject Of Test: Vascular endothelial growth factor receptor 1 (Homo sapiens, UniProt P17948)
# Sequence (P17948 whole entry): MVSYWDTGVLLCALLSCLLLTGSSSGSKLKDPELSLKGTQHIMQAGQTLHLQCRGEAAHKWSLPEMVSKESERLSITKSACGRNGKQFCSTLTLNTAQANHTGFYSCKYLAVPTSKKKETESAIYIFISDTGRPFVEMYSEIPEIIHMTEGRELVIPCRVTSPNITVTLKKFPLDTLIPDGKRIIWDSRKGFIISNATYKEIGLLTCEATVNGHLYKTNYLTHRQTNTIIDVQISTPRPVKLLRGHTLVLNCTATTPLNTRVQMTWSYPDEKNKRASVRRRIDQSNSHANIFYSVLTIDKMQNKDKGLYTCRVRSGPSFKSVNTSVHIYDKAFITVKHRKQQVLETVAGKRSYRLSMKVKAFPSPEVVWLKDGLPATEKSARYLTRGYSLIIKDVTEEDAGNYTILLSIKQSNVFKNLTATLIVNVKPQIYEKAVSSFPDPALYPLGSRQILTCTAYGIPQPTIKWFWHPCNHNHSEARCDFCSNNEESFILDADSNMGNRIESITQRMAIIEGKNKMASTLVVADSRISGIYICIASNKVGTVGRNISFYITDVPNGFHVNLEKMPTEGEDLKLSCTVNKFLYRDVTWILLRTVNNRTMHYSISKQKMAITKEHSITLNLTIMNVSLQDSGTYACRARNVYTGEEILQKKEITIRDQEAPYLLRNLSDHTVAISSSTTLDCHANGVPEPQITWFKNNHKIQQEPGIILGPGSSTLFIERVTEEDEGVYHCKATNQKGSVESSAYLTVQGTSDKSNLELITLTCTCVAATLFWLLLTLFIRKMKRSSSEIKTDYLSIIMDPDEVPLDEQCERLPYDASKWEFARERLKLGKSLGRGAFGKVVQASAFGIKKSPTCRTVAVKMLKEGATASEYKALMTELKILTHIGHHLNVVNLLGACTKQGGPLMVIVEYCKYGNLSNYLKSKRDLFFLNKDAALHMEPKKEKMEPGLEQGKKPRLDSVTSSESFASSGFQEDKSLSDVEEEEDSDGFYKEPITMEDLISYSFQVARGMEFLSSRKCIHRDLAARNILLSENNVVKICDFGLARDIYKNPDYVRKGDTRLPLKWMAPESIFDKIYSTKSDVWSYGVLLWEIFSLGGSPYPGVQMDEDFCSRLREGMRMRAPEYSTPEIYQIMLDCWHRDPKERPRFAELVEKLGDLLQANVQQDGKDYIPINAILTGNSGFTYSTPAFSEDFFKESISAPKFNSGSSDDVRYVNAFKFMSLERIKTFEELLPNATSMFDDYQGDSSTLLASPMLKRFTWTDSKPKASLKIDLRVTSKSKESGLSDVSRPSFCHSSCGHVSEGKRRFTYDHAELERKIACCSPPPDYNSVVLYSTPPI
# Procedure Summary: Inhibition of recombinant VEGF-A/VEGFR-1 (unknown origin) interaction after 1 hr by ELISA
Entries annotated with measured pIC50
Scale for pIC50: -log10 of concentration given in mol/L; no unit attached.

Molecule: Oc1ccc([C@H]2Oc3c(c(O)cc4c3[C@H]3c5c(O)cc(O)cc5O[C@@](c5ccc(O)c(O)c5)(O4)[C@@H]3O)C[C@@H]2O)cc1 [GERANIN B]
pIC50: 4.19

Name the recorded pIC50 for `Oc1ccc([C@@H]2C[C@@H](c3c(O)cc(O)c4c3O[C@H](c3ccc(O)cc3)[C@@H](O)C4)c3c(O)cc(O)cc3O2)cc1` . 4.30

---

# Subject Of Test: Vascular endothelial growth factor receptor 1 (Homo sapiens, UniProt P17948)
# Procedure Summary: Inhibition of recombinant PlGF-1/VEGFR-1 (unknown origin) interaction after 1 hr by ELISA
Endpoint Label: pIC50
Keep it numeric: pIC50 is minus log10 of the concentration in mol/L.

Any idea what pIC50 was measured for `Oc1ccc([C@@H]2C[C@@H](c3c(O)cc(O)c4c3O[C@H](c3ccc(O)cc3)[C@@H](O)C4)c3c(O)cc(O)cc3O2)cc1` ? 4.82

---

# Test system: Jurkat
# Procedure Summary: Cytotoxicity against human Jurkat cells after 24 to 72 hrs by MTT assay
# Type: cell-based
Endpoint Label: IC50

Known IC50 results, listed for orientation:
Substance Smiles: Oc1cc(O)c2c(c1)O[C@@]1(c3ccc(O)c(O)c3)Oc3cc(O)c4c(c3[C@@H]2[C@H]1O)O[C@H](c1ccc(O)c(O)c1)[C@H](O)C4
Subject Of Test: Jurkat
IC50: > 70 µM
--
Substance Smiles: Oc1ccc([C@@H]2C[C@@H](c3c(O)cc(O)c4c3O[C@H](c3ccc(O)cc3)[C@H](O)C4)c3c(O)cc(O)cc3O2)cc1
Subject Of Test: Jurkat
IC50: > 70 µM
--
Substance Smiles: Oc1ccc([C@@H]2C[C@@H](c3c(O)cc(O)c4c3O[C@H](c3ccc(O)cc3)[C@@H](O)C4)c3c(O)cc(O)cc3O2)cc1
Subject Of Test: Jurkat
IC50: > 70 µM

Which IC50 reading was recorded for the compound `Oc1cc(O)c2c(c1)O[C@@]1(c3ccc(O)c(O)c3)Oc3cc(O)c4c(c3[C@@H]2[C@H]1O)O[C@H](c1ccc(O)c(O)c1)[C@@H](O)C4` ? > 70 µM

If you can, please state the reported IC50 value of `Oc1ccc([C@H]2Oc3c(c(O)cc4c3[C@H]3c5c(O)cc(O)cc5O[C@@](c5ccc(O)c(O)c5)(O4)[C@@H]3O)C[C@@H]2O)cc1` . > 70 µM

---

Entries and their pKd
# Subject Of Test: Placenta growth factor (Homo sapiens, UniProt P49763)
# Sequence (P49763 whole entry): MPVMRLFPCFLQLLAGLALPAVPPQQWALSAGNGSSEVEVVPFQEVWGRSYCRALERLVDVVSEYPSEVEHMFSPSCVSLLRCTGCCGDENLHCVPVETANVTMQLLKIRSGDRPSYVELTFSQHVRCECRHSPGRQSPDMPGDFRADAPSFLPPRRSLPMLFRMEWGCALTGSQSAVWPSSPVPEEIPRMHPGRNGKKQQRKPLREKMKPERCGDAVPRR
# Procedure Summary: Binding affinity to recombinant PIGF1 (unknown origin) measured for 60 seconds by surface plasmon resonance assay
# Test Settings: read-out: Kd
Remember, pKd is on a log scale: it is -log10 of the molar concentration.

Completed entries (count: 3):
Substance Smiles: O=c1cc(-c2ccc(O)c(-c3c(O)cc(O)c4c(=O)cc(-c5ccc(O)cc5)oc34)c2)oc2cc(O)cc(O)c12
Endpoint Label: pKd
Recorded Result: 8.09
//
Substance Smiles: Oc1cc(O)c2c(c1)O[C@@]1(c3ccc(O)c(O)c3)Oc3cc(O)c4c(c3[C@@H]2[C@H]1O)O[C@H](c1ccc(O)c(O)c1)[C@@H](O)C4
Endpoint Label: pKd
Recorded Result: 6.40
//
Substance Smiles: Oc1ccc([C@H]2Oc3c(c(O)cc4c3[C@H]3c5c(O)cc(O)cc5O[C@@](c5ccc(O)c(O)c5)(O4)[C@@H]3O)C[C@@H]2O)cc1
Endpoint Label: pKd
Recorded Result: 7.64

Find the measured pKd: item `Oc1ccc([C@@H]2C[C@@H](c3c(O)cc(O)c4c3O[C@H](c3ccc(O)cc3)[C@@H](O)C4)c3c(O)cc(O)cc3O2)cc1` , target or system Placenta growth factor (Homo sapiens, UniProt P49763). 7.96
